# target-desc: Solute carrier family 2, facilitated glucose transporter member 1 (Homo sapiens) (UniProt P11166)
# Sequence (P11166 whole entry): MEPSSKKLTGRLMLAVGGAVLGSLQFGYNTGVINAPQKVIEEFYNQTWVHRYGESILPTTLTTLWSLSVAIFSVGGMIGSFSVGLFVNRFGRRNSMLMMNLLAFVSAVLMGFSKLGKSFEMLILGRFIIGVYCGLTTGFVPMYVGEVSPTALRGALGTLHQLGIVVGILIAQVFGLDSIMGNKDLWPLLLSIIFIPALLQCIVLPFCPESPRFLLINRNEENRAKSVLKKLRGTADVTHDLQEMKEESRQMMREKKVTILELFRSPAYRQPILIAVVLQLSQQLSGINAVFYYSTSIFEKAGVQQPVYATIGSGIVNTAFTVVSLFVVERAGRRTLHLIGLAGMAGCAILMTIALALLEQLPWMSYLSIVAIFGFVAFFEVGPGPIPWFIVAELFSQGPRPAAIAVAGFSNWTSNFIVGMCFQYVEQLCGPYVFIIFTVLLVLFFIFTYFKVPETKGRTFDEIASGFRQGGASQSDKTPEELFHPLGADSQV
# experiment: ST_JUDE_LEISH: Cytotoxicity at 2uM final concentration against transgenic Leishmania Mexicana promastigotes LmGLUT1 that are glucose transport deficient and complemented with the human glucose transporter GLUT1. Activity is measured by DNA content using SYBR green in vitro
# Type: functional
Label t when inhibition >= 4%; otherwise f.

For orientation, consider the following solved cases.
{"compound": "COCCNCc1cccc(-c2ccc(CNC3CCN(Cc4ccccc4)CC3)cc2)c1", "answer-label": "f"}
{"compound": "COc1ccc(NC2=C(c3ccccc3)C(=O)c3ccccc32)cn1", "answer-label": "t"}
{"compound": "O=C(/C=C/c1ccc(Cl)c(Cl)c1)NCCCCCN1CCC(NC(=O)Nc2cccc(F)c2)CC1", "answer-label": "f"}
{"compound": "CCCCCCCc1c(C)nc2ccccc2c1O", "answer-label": "t"}
{"compound": "O=C(Nc1n[nH]c2nc(-c3ccco3)c(Br)cc12)c1ccc(CN2CCCC2)cc1", "answer-label": "f"}

Input line: API: above_or_equal(metric=inhibition, cutoff=4%) for item `c1ccc(CN2CCN(c3cc(-c4cncc(-c5ccccc5)c4)nc(-c4ccccc4)n3)CC2)cc1`
Output line: f

Input line: API: above_or_equal(metric=inhibition, cutoff=4%) for item CN1CCN(C(=O)CN2CCC3(CCC2=O)NC(=O)c2ccccc2O3)CC1 (stereo not given)
Output line: f

Input line: API: above_or_equal(metric=inhibition, cutoff=4%) for item Cc1ncc([N+](=O)[O-])n1CCOC(=O)NC(NCC1COc2ccccc2O1)C(Cl)(Cl)Cl (stereo not given)
Output line: f

Input line: API: above_or_equal(metric=inhibition, cutoff=4%) for item COc1ccccc1C1CCN(C2CCC(NC(=O)/C=C/c3ccc(C(F)(F)F)cc3)CC2)CC1 (stereo not given)
Output line: f

Input line: API: above_or_equal(metric=inhibition, cutoff=4%) for item `COc1ccc(Cl)cc1N1CCN(CCCNC(=O)c2ccc(-c3nc4cc(Cl)c(F)cc4[nH]3)s2)CC1`
Output line: t
